Test system: MA-10 Leydig tumor cells
Experiment: Progesterone release from MA-10 Leydig tumor cells
Format: cell-based, mouse
Settings: 20 µM compound; 2 h
Protocol: MA-10 Leydig tumor cells were maintained in RPMI medium supplemented with 10% horse serum and seeded in 24 well plates to achieve 60–80% confluency after 2–3 days. Cells were washed with serum free medium twice and incubated in a 5% CO2 incubator at 37°C for 2 h. […] Progesterone levels in the media were measured using a progesterone ELISA kit (Neogen, Lexington, KY). […]
Property: increase in progesterone release compared to untreated cells

CCc1nnc2c3ccccc3nc(Nc3cccc(C(=O)O)c3)n12 [BC8-15] = > 10 fold
CCc1nnc2c3ccccc3nc(Nc3cccc(C)c3)n12 [BC8-15C] = little or no effect
COc1ccc(C2CNC(=O)C2)cc1OC1CCCC1 (stereo not shown) [rolipram, reference compound] = little or no effect

----------
target: recombinant human PDE8A (Homo sapiens); construct: purchased BPS Bioscience Inc; assay: In vitro PDE assay (Ba(OH)2 precipitation), PDE8A; assay type: biochemical; settings: 10 nM cAMP substrate; mean ± SD of three independent experiments
Sequence (O60658 whole entry): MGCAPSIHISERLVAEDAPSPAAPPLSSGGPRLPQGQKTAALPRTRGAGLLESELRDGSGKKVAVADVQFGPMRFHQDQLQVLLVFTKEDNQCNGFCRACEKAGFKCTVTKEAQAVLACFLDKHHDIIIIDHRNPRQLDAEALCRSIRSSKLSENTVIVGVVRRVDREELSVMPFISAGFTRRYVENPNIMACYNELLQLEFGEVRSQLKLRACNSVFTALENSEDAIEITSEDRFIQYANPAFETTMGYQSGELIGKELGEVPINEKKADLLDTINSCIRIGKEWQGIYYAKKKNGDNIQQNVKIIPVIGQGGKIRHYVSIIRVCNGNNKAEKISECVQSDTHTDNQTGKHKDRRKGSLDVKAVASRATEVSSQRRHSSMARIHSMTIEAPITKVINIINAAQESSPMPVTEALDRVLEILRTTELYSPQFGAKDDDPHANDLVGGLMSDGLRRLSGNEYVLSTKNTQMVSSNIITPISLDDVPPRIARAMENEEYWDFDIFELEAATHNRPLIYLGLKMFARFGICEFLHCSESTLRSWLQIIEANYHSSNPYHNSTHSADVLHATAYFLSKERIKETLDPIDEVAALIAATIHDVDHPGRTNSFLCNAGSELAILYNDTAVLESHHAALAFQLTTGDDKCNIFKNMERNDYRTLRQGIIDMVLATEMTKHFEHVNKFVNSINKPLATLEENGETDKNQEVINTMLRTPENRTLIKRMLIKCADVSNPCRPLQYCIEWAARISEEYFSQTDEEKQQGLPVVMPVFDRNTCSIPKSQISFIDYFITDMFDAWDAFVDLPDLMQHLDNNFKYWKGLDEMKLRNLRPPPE
Property: IC50 (µM)
One number for each entry, in µM.

CCc1nnc2c3ccccc3nc(Nc3cccc(C)c3)n12 [BC8-15C] = 59.3

Any idea what its IC50 is? The compound is Cc1nnc2c3ccccc3nc(Nc3cccc(C(=O)O)c3)n12 [BC8-15A]
1.59

----------
target: UniProt:Q13946
Sequence (Q13946 whole entry): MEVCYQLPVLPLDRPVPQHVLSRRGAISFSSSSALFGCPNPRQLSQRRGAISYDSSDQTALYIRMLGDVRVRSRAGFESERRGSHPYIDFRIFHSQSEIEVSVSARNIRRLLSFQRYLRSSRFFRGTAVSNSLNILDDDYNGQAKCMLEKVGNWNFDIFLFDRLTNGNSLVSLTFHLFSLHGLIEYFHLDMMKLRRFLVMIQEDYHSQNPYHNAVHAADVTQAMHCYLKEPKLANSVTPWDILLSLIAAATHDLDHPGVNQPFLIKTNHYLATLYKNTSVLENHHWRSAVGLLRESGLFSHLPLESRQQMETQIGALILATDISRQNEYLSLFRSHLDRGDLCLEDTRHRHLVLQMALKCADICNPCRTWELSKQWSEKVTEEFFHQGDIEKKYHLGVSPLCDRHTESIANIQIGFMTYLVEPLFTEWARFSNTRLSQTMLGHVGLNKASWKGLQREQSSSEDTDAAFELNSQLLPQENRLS
Consider the following compounds; for each one, report its IC50.
Answers are plain numbers, in µM.

CCc1nnc2c3ccccc3nc(Nc3cccc(C)c3)n12 [BC8-15C] = 14.2

Give one value of IC50 per listed compound.
1. CCc1nnc2c3ccccc3nc(Nc3cccc(C(=O)O)c3)n12
2. Cc1nnc2c3ccccc3nc(Nc3cccc(C(=O)O)c3)n12 [BC8-15A]

6.46
8.88

----------
molecular target: recombinant human PDE11A4 (Homo sapiens, UniProt Q9HCR9); assay: In vitro PDE assay (Ba(OH)2 precipitation), PDE11A; conditions: 120 nM cGMP substrate; mean ± SD of three independent experiments
Sequence (Q9HCR9 whole entry): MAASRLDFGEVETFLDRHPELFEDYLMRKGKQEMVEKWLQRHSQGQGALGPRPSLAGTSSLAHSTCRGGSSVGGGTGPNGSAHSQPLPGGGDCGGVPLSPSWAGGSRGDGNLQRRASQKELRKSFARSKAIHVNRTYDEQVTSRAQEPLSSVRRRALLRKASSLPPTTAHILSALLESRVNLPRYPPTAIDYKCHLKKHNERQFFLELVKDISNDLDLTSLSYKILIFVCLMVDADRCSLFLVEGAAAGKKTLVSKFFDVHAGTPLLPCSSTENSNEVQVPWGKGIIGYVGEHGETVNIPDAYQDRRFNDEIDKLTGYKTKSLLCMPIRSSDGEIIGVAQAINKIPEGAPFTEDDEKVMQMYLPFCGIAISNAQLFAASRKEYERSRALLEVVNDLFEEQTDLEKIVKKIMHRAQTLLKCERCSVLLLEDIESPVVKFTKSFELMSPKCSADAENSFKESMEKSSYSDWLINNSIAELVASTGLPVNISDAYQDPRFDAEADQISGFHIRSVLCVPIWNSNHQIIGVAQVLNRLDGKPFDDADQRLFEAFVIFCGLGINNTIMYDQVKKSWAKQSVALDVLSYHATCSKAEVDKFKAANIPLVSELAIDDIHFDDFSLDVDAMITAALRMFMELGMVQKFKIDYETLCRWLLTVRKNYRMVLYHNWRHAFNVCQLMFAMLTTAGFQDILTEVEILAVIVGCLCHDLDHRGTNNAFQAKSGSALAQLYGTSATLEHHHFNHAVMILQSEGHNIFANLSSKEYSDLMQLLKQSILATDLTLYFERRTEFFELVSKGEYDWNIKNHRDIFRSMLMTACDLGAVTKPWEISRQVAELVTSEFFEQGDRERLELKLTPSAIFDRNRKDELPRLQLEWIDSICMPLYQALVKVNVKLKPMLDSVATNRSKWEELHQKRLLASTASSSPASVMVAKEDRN
Consider the following compounds; for each one, report its pIC50.
Give bare numbers, as −log10 of the molar value.

Here are 2 compounds together with their reported answers.
CCc1nnc2c3ccccc3nc(Nc3cccc(C(=O)O)c3)n12 = 5.92
CCc1nnc2c3ccccc3nc(Nc3cccc(C)c3)n12 [BC8-15C] = 7.10

Now consider the entry below.
Any idea what its pIC50 is? The compound is Cc1nnc2c3ccccc3nc(Nc3cccc(C(=O)O)c3)n12 [BC8-15A]
6.00

----------
target: rat PDE2A (Rattus norvegicus)
Sequence (Q01062 whole entry): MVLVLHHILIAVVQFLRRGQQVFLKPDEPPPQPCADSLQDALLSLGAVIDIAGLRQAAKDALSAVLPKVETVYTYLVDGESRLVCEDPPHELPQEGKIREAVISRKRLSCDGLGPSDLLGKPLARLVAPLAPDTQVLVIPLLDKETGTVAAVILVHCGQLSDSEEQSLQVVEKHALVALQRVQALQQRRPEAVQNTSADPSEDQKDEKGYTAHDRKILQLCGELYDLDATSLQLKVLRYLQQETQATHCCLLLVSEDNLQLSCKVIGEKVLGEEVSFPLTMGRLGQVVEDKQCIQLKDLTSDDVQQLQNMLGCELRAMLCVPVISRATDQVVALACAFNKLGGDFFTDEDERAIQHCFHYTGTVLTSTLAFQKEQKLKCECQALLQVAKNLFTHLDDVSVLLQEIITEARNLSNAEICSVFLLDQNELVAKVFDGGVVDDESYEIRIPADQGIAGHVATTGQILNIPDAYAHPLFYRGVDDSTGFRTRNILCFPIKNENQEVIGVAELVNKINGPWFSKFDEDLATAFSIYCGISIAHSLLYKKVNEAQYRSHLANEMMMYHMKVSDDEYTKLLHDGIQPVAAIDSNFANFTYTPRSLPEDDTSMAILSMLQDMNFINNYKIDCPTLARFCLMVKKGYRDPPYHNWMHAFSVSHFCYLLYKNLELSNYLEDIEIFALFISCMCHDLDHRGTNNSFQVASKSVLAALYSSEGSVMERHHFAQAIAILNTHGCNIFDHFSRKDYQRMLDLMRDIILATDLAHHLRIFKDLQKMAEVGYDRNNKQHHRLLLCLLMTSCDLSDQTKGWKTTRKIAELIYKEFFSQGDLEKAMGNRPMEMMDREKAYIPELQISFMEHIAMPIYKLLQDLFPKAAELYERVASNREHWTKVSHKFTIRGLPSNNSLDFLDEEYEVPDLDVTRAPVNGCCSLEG
Consider the following compounds; for each one, report its pIC50.
Numbers only, as −log10 of the molar value.

Cc1nnc2c3ccccc3nc(Nc3cccc(C(=O)O)c3)n12 [BC8-15A] = 5.28

Now consider the entry below.
For rat PDE2A (Rattus norvegicus), provide pIC50 of CCc1nnc2c3ccccc3nc(Nc3cccc(C(=O)O)c3)n12 [BC8-15] please.
4.80

----------
target: human PDE4A10 (Homo sapiens); construct: gift from Dr. Hengming Ke; experiment: In vitro PDE assay (Ba(OH)2 precipitation), PDE4A; format: biochemical; conditions: 50 nM cAMP substrate
Sequence (P27815 1-825 isoform P27815-6): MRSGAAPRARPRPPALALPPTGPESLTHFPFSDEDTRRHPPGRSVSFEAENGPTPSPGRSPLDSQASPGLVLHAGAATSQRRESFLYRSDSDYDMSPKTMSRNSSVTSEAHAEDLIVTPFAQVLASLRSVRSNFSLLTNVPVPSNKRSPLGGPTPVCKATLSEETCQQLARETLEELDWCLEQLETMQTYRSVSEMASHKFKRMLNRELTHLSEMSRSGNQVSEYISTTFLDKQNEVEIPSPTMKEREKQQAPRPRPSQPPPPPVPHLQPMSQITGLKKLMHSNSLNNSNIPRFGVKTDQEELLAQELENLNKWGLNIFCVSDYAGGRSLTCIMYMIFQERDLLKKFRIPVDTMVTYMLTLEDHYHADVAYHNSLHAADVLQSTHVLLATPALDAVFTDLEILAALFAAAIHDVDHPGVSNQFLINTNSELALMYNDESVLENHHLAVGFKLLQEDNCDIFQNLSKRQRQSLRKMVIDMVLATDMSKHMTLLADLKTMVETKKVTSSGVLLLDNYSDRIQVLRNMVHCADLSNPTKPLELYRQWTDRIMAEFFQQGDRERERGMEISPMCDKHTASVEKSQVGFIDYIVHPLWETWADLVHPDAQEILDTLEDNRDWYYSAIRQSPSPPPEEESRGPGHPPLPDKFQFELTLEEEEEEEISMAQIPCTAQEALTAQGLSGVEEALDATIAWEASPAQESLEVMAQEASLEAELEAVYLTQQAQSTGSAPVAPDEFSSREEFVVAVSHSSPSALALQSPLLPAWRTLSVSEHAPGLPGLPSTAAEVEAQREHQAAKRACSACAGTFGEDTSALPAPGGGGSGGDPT
Property: pIC50
Numbers only, as −log10 of the molar value.

Any idea what its pIC50 is? The compound is `CCc1nnc2c3ccccc3nc(Nc3cccc(C(=O)O)c3)n12`
6.66
